# Test system: HT29 cells
# Method Notes: CHK1 Cellular Assay - Gemcitabine EC50 Assay
# Format: cell-based
# Condition Parameters: HT29 cells, in the presence of gemcitabine at 10 nM, 72 hours, SRB staining; read-out: CHK1 Cellular Activity (EC50 range)
pEC50: −log10 of the molar value.
Measured Metric: pEC50

Worked examples, 3 compounds total:
Note pEC50 for the compound shown: C[C@@H]1CCC[C@H](C)N1Cc1ccc2[nH]c(-c3cc(NC(=O)c4cnn(Cc5ccccc5)c4)c[nH]c3=O)cc2c1 [Example 177]
> 7.00

Note pEC50 for the compound shown: CC1CCN(Cc2ccc3[nH]c(-c4cc(NC(=O)c5cnn(Cc6ccccc6)c5)c[nH]c4=O)cc3c2)CC1 [Example 78]
> 7.00

Note pEC50 for the compound shown: C[C@H]1CCCCN1Cc1ccc2[nH]c(-c3cc(NC(=O)c4cnn(Cc5ccccc5)c4)c[nH]c3=O)cc2c1 [Example 171]
> 7.00

Further cases:
Note pEC50 for the compound shown: CC(c1ccccc1)n1cc(C(=O)Nc2c[nH]c(=O)c(-c3cc4cc(CN5CCC(F)CC5)ccc4[nH]3)c2)cn1 (stereo not drawn) [Example 87]
> 7.00

Note pEC50 for the compound shown: C[C@@H]1CCCCN1Cc1ccc2[nH]c(-c3cc(NC(=O)c4cnn(Cc5ccccc5)c4)c[nH]c3=O)cc2c1 [Example 173]
> 7.00

Note pEC50 for the compound shown: Cc1ccc(Cn2cc(C(=O)Nc3c[nH]c(=O)c(-c4cc5cc(CN6CCCCC6)ccc5[nH]4)c3)cn2)cc1 [Example 38]
6.30 to 7.00
